Data origin, for the record: patent US9278958B2

Tested on: HeLa cervix carcinoma cells
assay procedure: Cytostatic assay, HeLa
Type: cell-based, human
experimental conditions: Homo sapiens; Table 1b; read-out: IC50 (μM) (HeLa)
Reported IC50 values are given for each entry in this list.
State just the number; it will be interpreted in µM.

Asked: Please look up its IC50: "COC(=O)c1cc(CSCc2cccs2)sc1N"
Given back: 99

Asked: Please look up its IC50: "COC(=O)c1cc(CSc2ccc(C)cc2)sc1N"
Given back: 72

Asked: Please look up its IC50: "COC(=O)c1cc(CSc2ccc(OC)cc2)sc1N"
Given back: 88

Asked: Please look up its IC50: "COC(=O)c1cc(CSc2ccc3ccccc3c2)sc1N"
Given back: 74

Next up:
Asked: Please look up its IC50: "COC(=O)c1cc(CSCc2ccco2)sc1N"
Given back: 102

* * *

Reported IC50 values are given for each entry in this list.
Test system: RNA synthesis in Raji cells
assay procedure: Antimetabolic activity assay, [5-3H]uridine incorporation (RNA synthesis), Raji
Format: cell-based
experimental conditions: Homo sapiens, incorporation into TCA-insoluble material
Method: [The procedure below names another cell line; the source lists this cell line under the same test.] Radiolabeled precursors of DNA synthesis ([^3H-methyl]dThd), RNA synthesis ([5-^3H]Urd), and protein synthesis ([4,5-^3H]leu) were added to 10^5 CEM cell cultures in the 200 μl-wells of a microtiter plate at 1 μCi for each precursor in the presence of varying concentrations of the test compounds (5-fold dilution series). […] At the end of the incubation period, the contents of the wells were brought onto 25-mm glass fiber filters and further processed for measurement of acid-insoluble radioactivity.

Asked: Please look up its IC50: CCOC(=O)c1c(N)sc(CCc2cc(OC)ccc2OC)c1C(=O)OCC [TR592]
Given back: 31 µM

Next:
Asked: Please look up its IC50: COC(=O)c1cc(CCc2ccccc2OC)sc1N [TR567]
Given back: 68 µM

Asked: Please look up its IC50: CCOC(=O)c1cc(CCc2ccccc2OC)sc1N [TR542]
Given back: ≥ 100 µM

Asked: Please look up its IC50: COC(=O)c1cc(CCc2cc(OC)ccc2OC)sc1N [TR584]
Given back: ≥ 100 µM

Asked: Please look up its IC50: CCOC(=O)c1cc(-c2ccc(OC)cc2)sc1N [TR525]
Given back: 82 µM

Asked: Please look up its IC50: COc1ccccc1CCc1cc(C#N)c(N)s1 [TR585]
Given back: ≥ 100 µM

Asked: Please look up its IC50: COC(=O)c1cc(CCc2ccccc2)sc1N [TR575]
Given back: > 100 µM

Asked: Please look up its IC50: COC(=O)c1cc(CCc2ccsc2)sc1N [TR595]
Given back: 27 µM

Asked: Please look up its IC50: COC(=O)c1cc(CCc2ccc(OC)cc2C)sc1N [TR583]
Given back: > 100 µM

Asked: Please look up its IC50: CCOC(=O)c1cc(C#Cc2ccc(OC)cc2)sc1N [TR530]
Given back: 60 µM

Asked: Please look up its IC50: COc1ccc(OC)c(CCc2cc(C#N)c(N)s2)c1 [TR589]
Given back: 90 µM

Asked: Please look up its IC50: CCOC(=O)c1cc(CCc2ccc(OC)cc2)sc1N [TR532]
Given back: > 100 µM

* * *

Test system: HUT-78 cells
assay procedure: Cytostatic assay, HUT-78
Assay type: cell-based
experimental conditions: Homo sapiens, HuT78; Table 2
measurement kind: IC50 (µM)
State just the number; it will be interpreted in µM.

// worked examples, IC50 included
Asked: Find the measured IC50: item COC(=O)c1cc(CCc2ccccc2OC)sc1N [TR567] , target or system HUT-78 cells.
Given back: 13

Asked: Find the measured IC50: item N#Cc1cc(CCc2ccccc2)sc1N [TR588] , target or system HUT-78 cells.
Given back: 18

Asked: Find the measured IC50: item COc1ccccc1CCc1cc(C#N)c(N)s1 [TR585] , target or system HUT-78 cells.
Given back: 7.1

Asked: Find the measured IC50: item CCOC(=O)c1cc(CCc2ccc(OC)cc2)sc1N [TR532] , target or system HUT-78 cells.
Given back: 22

Asked: Find the measured IC50: item COC(=O)c1cc(CCc2ccc(OC)cc2C)sc1N [TR583] , target or system HUT-78 cells.
Given back: 39

Next:
Asked: Find the measured IC50: item COC(=O)c1cc(CCc2ccccn2)sc1N [TR596] , target or system HUT-78 cells.
Given back: 142

Asked: Find the measured IC50: item COC(=O)c1cc(CCc2cc(OC)ccc2OC)sc1N [TR584] , target or system HUT-78 cells.
Given back: 2.6

Asked: Find the measured IC50: item CCOC(=O)c1cc(CCc2cc(OC)ccc2OC)sc1N [TR587] , target or system HUT-78 cells.
Given back: 0.43

Asked: Find the measured IC50: item CCOC(=O)c1cc(-c2ccccc2OC)sc1N [TR531] , target or system HUT-78 cells.
Given back: 108

Asked: Find the measured IC50: item COC(=O)c1cc(-c2ccc(OC)cc2)sc1N [TR572] , target or system HUT-78 cells.
Given back: 26

Asked: Find the measured IC50: item CCOC(=O)c1cc(C#Cc2ccc(OC)cc2)sc1N [TR530] , target or system HUT-78 cells.
Given back: 44

* * *

Tested on: U87 CD4+/CXCR4+/CCR5+ glioma cells
assay procedure: Cytostatic assay, U87 CD4+/CXCR4+/CCR5+
Assay type: cell-based
experimental conditions: Homo sapiens, Glioma cell; Table 3
measurement kind: IC50

// worked examples, IC50 included
Asked: Find the measured IC50: item "COC(=O)c1cc(CCc2ccc(OC)cc2C)sc1N" , target or system U87 CD4+/CXCR4+/CCR5+ glioma cells.
Given back: 48 µM

Asked: Find the measured IC50: item "COC(=O)c1cc(CCc2ccsc2)sc1N" , target or system U87 CD4+/CXCR4+/CCR5+ glioma cells.
Given back: 51 µM

Asked: Find the measured IC50: item "COC(=O)c1cc(CCc2ccccc2)sc1N" , target or system U87 CD4+/CXCR4+/CCR5+ glioma cells.
Given back: 73 µM

Next:
Asked: Find the measured IC50: item "CCOC(=O)c1cc(C#Cc2ccc(OC)cc2)sc1N" , target or system U87 CD4+/CXCR4+/CCR5+ glioma cells.
Given back: 28 µM

Asked: Find the measured IC50: item "COC(=O)c1cc(CCc2ccccc2OC)sc1N" , target or system U87 CD4+/CXCR4+/CCR5+ glioma cells.
Given back: 32 µM

Asked: Find the measured IC50: item "CCOC(=O)c1cc(CCc2ccc(OC)cc2)sc1N" , target or system U87 CD4+/CXCR4+/CCR5+ glioma cells.
Given back: 37 µM

* * *

System: protein synthesis in CEM cells
assay procedure: Antimetabolic activity assay, [4,5-3H]leucine incorporation (protein synthesis), CEM
Format: cell-based
experimental conditions: Homo sapiens, CCRF-CEM, incorporation into TCA-insoluble material
measurement kind: log10 of IC50 (log10 of the value in µM)
Base-10 log of IC50, unit µM.

Asked: Please look up its log10 of IC50: "COc1ccccc1CCc1cc(C#N)c(N)s1"
Given back: 1.04

Asked: Please look up its log10 of IC50: "COC(=O)c1cc(CCc2ccccc2)sc1N"
Given back: -0.21

Asked: Please look up its log10 of IC50: "CCOC(=O)c1cc(CCc2ccccc2OC)sc1N"
Given back: 1.36

Asked: Please look up its log10 of IC50: "COC(=O)c1cc(CCc2ccc(OC)cc2C)sc1N"
Given back: 0.28

Asked: Please look up its log10 of IC50: "COC(=O)c1cc(CCc2ccsc2)sc1N"
Given back: -0.18

Asked: Please look up its log10 of IC50: "CCOC(=O)c1cc(CCc2ccc(OC)cc2)sc1N"
Given back: 0.20

Next:
Asked: Please look up its log10 of IC50: "CCOC(=O)c1cc(C#Cc2ccc(OC)cc2)sc1N"
Given back: -0.70

Asked: Please look up its log10 of IC50: "CCOC(=O)c1cc(-c2ccc(OC)cc2)sc1N"
Given back: 0.79

Asked: Please look up its log10 of IC50: "COc1ccc(OC)c(CCc2cc(C#N)c(N)s2)c1"
Given back: 1.30

Asked: Please look up its log10 of IC50: "COC(=O)c1cc(CCc2ccccc2OC)sc1N"
Given back: 0.15

Asked: Please look up its log10 of IC50: "CCOC(=O)c1c(N)sc(CCc2cc(OC)ccc2OC)c1C(=O)OCC"
Given back: 1.23

Asked: Please look up its log10 of IC50: "COC(=O)c1cc(CCc2cc(OC)ccc2OC)sc1N"
Given back: 0.04

* * *

Tested on: HeLa cervix carcinoma cells
assay procedure: Cytostatic assay, HeLa
Type: cell-based, human
experimental conditions: Homo sapiens; Table 3; read-out: Cytostatic activity (μM) Hela
Reported IC50 values are given for each entry in this list.
State just the number; it will be interpreted in µM.

Asked: Please look up its IC50: "CCOC(=O)c1c(N)sc(CCc2ccc(OC)cc2)c1C(=O)OCC"
Given back: 41
